Target Entity: MOF-KAT8 (Homo sapiens)
Test Method Notes: Revised Acetyltransferase Biochemical Assay, KAT8
Observation Type: IC50 (µM)
Answers are plain numbers, in µM.

O=C(NCCc1ccccc1OC(F)F)C1=Nc2ccc(I)cc2S(=O)(=O)N1    21.1
O=C(NCC(c1ccccc1)c1nccs1)C1=Nc2ccc(Cl)cc2S(=O)(=O)N1 (stereo not shown)    36.8
O=C(NCC(c1cccc(Cl)c1)c1ncco1)C1=Nc2ccc(Cl)cc2S(=O)(=O)N1 (stereo not shown)    34.5

Kindly review the next compound as well.
Can you look up the measured IC50 of O=C(NCC(c1cccc(O)c1)c1ncco1)C1=Nc2ccc(I)cc2S(=O)(=O)N1 (stereo not shown) for me?
5.72

---

Target Entity: MOZ-KAT6A (Homo sapiens, UniProt Q92794, A567V)
Construct: encoding amino acid residues 507 to 778 (Uniprot Q92794-1) of human KAT6A; made in house; host or cells: E. coli BL21 DE3
Sequence (Q92794 507-778 A567V limits assumed): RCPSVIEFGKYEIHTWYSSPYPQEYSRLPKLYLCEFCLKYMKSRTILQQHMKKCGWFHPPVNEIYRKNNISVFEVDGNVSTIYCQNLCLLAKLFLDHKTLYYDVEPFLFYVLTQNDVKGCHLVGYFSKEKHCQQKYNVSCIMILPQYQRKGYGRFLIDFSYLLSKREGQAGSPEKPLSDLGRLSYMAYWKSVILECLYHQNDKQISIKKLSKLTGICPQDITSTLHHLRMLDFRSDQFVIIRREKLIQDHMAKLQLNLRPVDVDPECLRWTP
Test Method Notes: Revised Acetyltransferase Biochemical Assay, KAT6A
Experimental Context: Table 8 (MOZ-KAT6A), 1 μM Acetyl coenzyme A
Observation Type: pIC50
Numbers only, as −log10 of the molar value.

Example cases with answers are listed next.
O=C(NCCc1ccccc1)C1=Nc2ccc(I)cc2S(=O)(=O)N1 [Example 93]    7.01
O=C(NCCc1ccccc1F)C1=Nc2ccc(Br)cc2S(=O)(=O)N1 [Example 81]    6.26
O=C(NCC(c1ccc(F)cc1)c1ccccn1)C1=Nc2ccc(Br)cc2S(=O)(=O)N1 (centres unmarked) [Example 39]    7.49
CN(CC(c1ccccc1)c1ncco1)C(=O)C1=Nc2ccc(I)cc2S(=O)(=O)N1 (centres unmarked) [Example 203]    6.37
O=C(NCCc1ccccc1)C1=Nc2ccc(Br)cc2S(=O)(=O)N1 [Example 78]    6.69

Each compound below has a recorded value; state its pIC50.
1. O=C(NCC(c1ccccc1)c1ncco1)C1=Nc2ccc(Br)cc2S(=O)(=O)N1 (single isomer, unassigned) [Example 139]
2. O=C(NCC(F)(F)c1ccccc1OC(F)F)C1=Nc2ccc(I)cc2S(=O)(=O)N1 [Example 231]
3. COCC(CNC(=O)C1=Nc2ccc(Cl)cc2S(=O)(=O)N1)c1ccccc1 (centres unmarked) [Example 226]

7.00
7.00
7.12

---

Target Entity: TIP60-KAT5 (Homo sapiens, UniProt Q92993)
Construct: encoding amino acid residues 2 to 461 (Uniprot Q92993-2) of human KAT5 isoform; made in house; host or cells: E. coli BL21 DE3
Sequence (Q92993 2-461 isoform Q92993-2): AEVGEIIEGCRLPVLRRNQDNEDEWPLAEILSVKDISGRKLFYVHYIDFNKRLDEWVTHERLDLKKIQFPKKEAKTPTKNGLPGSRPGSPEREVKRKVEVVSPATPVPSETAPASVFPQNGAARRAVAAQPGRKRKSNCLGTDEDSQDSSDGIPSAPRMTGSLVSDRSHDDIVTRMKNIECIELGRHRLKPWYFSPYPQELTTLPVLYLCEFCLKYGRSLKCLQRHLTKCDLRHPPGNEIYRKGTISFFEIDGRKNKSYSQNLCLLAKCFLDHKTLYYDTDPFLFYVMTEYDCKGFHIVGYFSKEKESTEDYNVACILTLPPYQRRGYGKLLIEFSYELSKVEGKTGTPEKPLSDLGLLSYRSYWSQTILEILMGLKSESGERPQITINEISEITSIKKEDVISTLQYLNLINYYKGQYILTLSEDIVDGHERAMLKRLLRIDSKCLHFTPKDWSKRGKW
Test Method Notes: Acetyltransferase biochemical assay (AlphaScreen), KAT5
Experimental Context: Table 1 (TIP60-KAT5); 0.4 μM Acetyl coenzyme A, histone H4, 10 nM enzyme
Field: IC50. Provide a value for each of the compounds that follow.

O=C(NCCc1ccncc1)C1=Nc2ccc(I)cc2S(=O)(=O)N1 [Example 104]    > 125 µM
O=C(NCCc1ccc(Cl)cc1)C1=Nc2ccccc2S(=O)(=O)N1 [Example 69]    > 125 µM

Kindly review the next compound as well.
Tell me reported IC50 for O=C(NCCc1ccccc1O)C1=Nc2ccccc2S(=O)(=O)N1 [Example 29] , tested with TIP60-KAT5 (Homo sapiens, UniProt Q92993).
> 125 µM

---

Target Entity: MOZ-KAT6A (Homo sapiens, UniProt Q92794, A567V)
Construct: encoding amino acid residues 507 to 778 (Uniprot Q92794-1) of human KAT6A; made in house; host or cells: E. coli BL21 DE3
Test Method Notes: Acetyltransferase biochemical assay (AlphaScreen), KAT6A
Experimental Context: Table 2 (MOZ-KAT6A); 10 μM Acetyl coenzyme A, histone H3.1, 5 nM enzyme
Observation Type: pIC50
One number for each entry, as −log10 of the molar value.

Example cases with answers are listed next.
O=C(NCCc1cccc(O)c1)C1=Nc2ccc(I)cc2S(=O)(=O)N1 [Example 102]    4.97
O=C(NCC(c1ccccc1)c1ncco1)C1=Nc2ccc(-c3cscn3)cc2S(=O)(=O)N1 (stereo not drawn) [Example 135]    6.77
[C-]#[N+]c1ccc2c(c1)S(=O)(=O)NC(C(=O)NCC(c1ccccc1)c1ncco1)=N2 (single isomer, unassigned) [Example 142]    7.68
O=C(NCCc1ccccc1I)C1=Nc2ccccc2S(=O)(=O)N1 [Example 31]    5.08

Each compound below has a recorded value; state its pIC50.
1. CNC(=O)c1ccc2c(c1)S(=O)(=O)NC(C(=O)NCC(c1ccccc1)c1ncco1)=N2 (stereo not drawn) [Example 32]
2. O=C(NCCc1ccccc1F)C1=Nc2ccc(Br)cc2S(=O)(=O)N1 [Example 81]
3. COc1ccccc1CCNC(=O)C1=Nc2ccccc2S(=O)(=O)N1 [Example 64]

[7.30, 5.79, 3.99]

---

Target Entity: MOZ-KAT6A (Homo sapiens, UniProt Q92794, A567V)
Construct: encoding amino acid residues 507 to 778 (Uniprot Q92794-1) of human KAT6A; made in house; host or cells: E. coli BL21 DE3
Test Method Notes: Acetyltransferase biochemical assay (AlphaScreen), KAT6A
Experimental Context: Table 2 (MOZ-KAT6A); 10 μM Acetyl coenzyme A, histone H3.1, 5 nM enzyme
Classify: rule met when IC50 is strictly less than 300 nM; rule not met when IC50 is not.

O=C(NCC(C(=O)O)c1ccccc1)C1=Nc2ccccc2S(=O)(=O)N1 (stereo not drawn)    rule not met
O=C(NCC(c1ccccc1)c1ncco1)C1=Nc2ccc(-c3cn[nH]c3)cc2S(=O)(=O)N1 (stereo not drawn)    rule met

Identify whether the molecule O=C(NCC(O)c1ccccc1)C1=Nc2ccccc2S(=O)(=O)N1 (stereo not drawn) records IC50 below 300 nM.
rule not met

Identify whether the molecule O=C(NCC(c1ccccc1)c1ncco1)C1=Nc2ccc(F)cc2S(=O)(=O)N1 (single isomer, unassigned) [Example 144] records IC50 below 300 nM.
rule met

Identify whether the molecule Cc1coc(C(CNC(=O)C2=Nc3ccccc3S(=O)(=O)N2)c2ccccc2)n1 (stereo not drawn) records IC50 below 300 nM.
rule met

Identify whether the molecule O=C(NCC(CCO)c1ccccc1)C1=Nc2ccccc2S(=O)(=O)N1 (stereo not drawn) records IC50 below 300 nM.
rule not met

Identify whether the molecule COc1cccc(CCNC(=O)C2=Nc3ccc(I)cc3S(=O)(=O)N2)c1 records IC50 below 300 nM.
rule not met

Identify whether the molecule Nc1ccc2c(c1)S(=O)(=O)NC(C(=O)NCC(c1ccccc1)c1ncco1)=N2 (stereo not drawn) records IC50 below 300 nM.
rule not met

Identify whether the molecule O=C(NCCc1ccccc1F)C1=Nc2ccccc2S(=O)(=O)N1 records IC50 below 300 nM.
rule not met

---

Target Entity: MOF-KAT8 (Homo sapiens, UniProt Q9H7Z6)
Sequence (Q9H7Z6 177-447): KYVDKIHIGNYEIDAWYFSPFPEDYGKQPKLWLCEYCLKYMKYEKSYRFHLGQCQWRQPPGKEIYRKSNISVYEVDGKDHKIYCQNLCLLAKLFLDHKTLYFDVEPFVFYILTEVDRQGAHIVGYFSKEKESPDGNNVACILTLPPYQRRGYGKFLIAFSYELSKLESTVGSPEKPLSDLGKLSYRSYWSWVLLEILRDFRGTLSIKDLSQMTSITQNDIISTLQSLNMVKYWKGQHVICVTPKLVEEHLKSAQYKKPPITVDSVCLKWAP
Test Method Notes: Revised Acetyltransferase Biochemical Assay, KAT8
pIC50: −log10 of the molar value.
Observation Type: pIC50

Example cases with answers are listed next.
O=C(NCC(c1ccccc1)c1ncc[nH]1)C1=Nc2ccccc2S(=O)(=O)N1 (stereo not drawn)    < 3.90
O=C(NCC(c1ncco1)c1ccccc1CO)C1=Nc2ccccc2S(=O)(=O)N1 (stereo not drawn)    < 3.90

Can you look up the measured pIC50 of O=C(NCCc1ccccc1C(F)(F)F)C1=Nc2ccc(I)cc2S(=O)(=O)N1 for me?
< 3.90
